Sourced from the RepoRT retention time repository (doi:10.1016/j.jchromb.2020.122105)

Assay: RP, Waters ACQUITY UPLC BEH C18, 100 × 2.1 mm, 1.7 µm, 0.2 mL/min, estimated dead time 1.1 min; A: water + 0.1% formic acid, pH 3; B: methanol + 0.1% formic acid, pH 3; gradient (min/%B) 0/5 5/5 25/100 30/100 30.1/5 35/5
Conditions: stereoisomer not certain
Measured Attribute: LC retention time (min)
Respond numerically; units are min and should not be typed.

Sample records with LC retention time:
Nc1nc2ncc(CNc3ccc(C(=O)NC(CCC(=O)O)C(=O)O)cc3)nc2c(=O)[nH]1 (centres undefined) | 11.2
CC(=O)NC(CCC(=O)O)C(=O)O (racemic) | 2.27
Nc1ccn(C2CC(O)C(COP(=O)(O)O)O2)c(=O)n1 (centres undefined) [2'-DEOXYCYTIDINE 5'-MONOPHOSPHATE] | 1.38

Field: next molecule
Prompt: Name the recorded LC retention time for Nc1ncnc2c1ncn2C1CC(O)C(COP(=O)(O)O)O1 (centres undefined) .
Response: 1.38

###

Experiment: RP, Waters CORTECS T3, 100 × 2.1 mm, 2.7 µm, 0.2 mL/min, estimated dead time 1.1 min; A: water + 0.045% formic acid + 0.11% ammonium hydroxide, pH 7; B: methanol; gradient (min/%B) 0/5 5/5 25/95 25.1/100 35/100 35.1/5 45/5
Conditions: stereoisomer not certain
Measured Attribute: LC retention time
Just so you know, I need the unit written after the number.

Some solved entries appear below for comparison.
Cc1cnc(=O)[nH]c1N | 1.35 min
Nc1nc2nccnc2c(=O)[nH]1 | 1.35 min
Cn1cncc1CCN | 1.73 min

Prompt: Item under review: CSCC1OC(n2cnc3c(N)ncnc32)C(O)C1O (stereo not drawn) . Reported LC retention time?
Response: 12.3 min

Prompt: GET /values?readout=LC retention time&item= `N[C@@H](Cc1ccc(O)cc1)C(=O)O`
Response: 5.83 min

Prompt: LC retention time lookup needed for `CC(=O)N[C@H](Cc1c[nH]c2ccccc12)C(=O)O` , thanks.
Response: 10.4 min

Prompt: Need LC retention time of NC(=O)[C@@H](N)Cc1c[nH]c2ccccc12 [L-TRYPTOPHANAMIDE] , thanks.
Response: 9.97 min

Prompt: // query LC retention time value for entry CC12CCC(=O)C=C1CCC1C2C(O)CC2(C)C1CCC2(O)C(=O)CO (stereo not drawn)
Response: 18.5 min

###

Assay: RP, Waters ACQUITY UPLC BEH C18, 100 × 2.1 mm, 1.7 µm, 0.2 mL/min, estimated dead time 1.1 min; A: water + 0.025% formic acid + 20 mM ammonium acetate + 0.055% ammonium hydroxide, pH 7; B: methanol; gradient (min/%B) 0/5 5/5 25/100 30/100 30.1/5 35/5
Conditions: stereoisomer not certain
Structures can show the parent of a compound that is named as a salt.
Measured Attribute: LC retention time (min)
Write it as a number; the unit min goes unstated.

O=C(O)CCCCCCCCCCCO [OMEGA-HYDROXYDODECANOIC ACID] | 16.3
NC(=O)Cc1c[nH]c2ccccc12 [INDOLE-3-ACETAMIDE] | 11.9
O=S(=O)(O)Oc1c[nH]c2ccccc12 [INDOXYL SULFATE] | 5.76
N[C@@H](Cc1cc(I)c(Oc2ccc(O)cc2)c(I)c1)C(=O)O | 15.8
CC(CCC(=O)NCC(=O)O)C1CCC2C3C(O)CC4CC(O)CCC4(C)C3CC(O)C12C (stereo not given) [GLYCOCHOLATE] | 19.5
c1ncc2[nH]cnc2n1 | 1.74
COc1ccc2[nH]cc(CCNC(C)=O)c2c1 | 14.4
Cc1ncc(CO)c(C(=O)O)c1O [4-PYRIDOXATE] | 3.81

Prompt: What measured LC retention time goes with Nc1ccn(C2OC(CO)C3OP(=O)([O-])OC32)c(=O)n1 (stereo not given) [CYTIDINE 2',3'-CYCLIC MONOPHOSPHATE] ?
Response: 1.36

Prompt: Quick one: LC retention time for Nc1nc2c(ncn2C2OC(CO)C(O)C2O)c(=O)[nH]1 (stereo not given) ?
Response: 1.76

Prompt: Look up LC retention time for this molecule: O=C(O)c1cc(=O)c2ccccc2[nH]1 [4-HYDROXY-2-QUINOLINECARBOXYLIC ACID]
Response: 5.96

Prompt: Look up LC retention time: O=C(O)CCCCC1SCC2NC(=O)NC21 (stereo not given)
Response: 3.98

Prompt: So what's the measured LC retention time for this one? `CC(=O)N[C@H](Cc1c[nH]c2ccccc12)C(=O)O`
Response: 9.66

Prompt: Entry `Cc1cc2nc3[nH]c(=O)[nH]c(=O)c3nc2cc1C` : reported LC retention time = ?
Response: 13.1

Prompt: Looking for the measured LC retention time of `Nc1nc2nccnc2c(=O)[nH]1` , can you help?
Response: 1.41

Prompt: Need LC retention time of `O=C(O)c1cc(=O)c2cccc(O)c2[nH]1` , thanks.
Response: 1.36

Prompt: I have this molecule here, `O=c1[nH]c(=O)c2[nH]cnc2[nH]1` , and I need its recorded LC retention time.
Response: 1.36

Prompt: I would be grateful if you could share the reported LC retention time for Nc1nc2ncc(CNc3ccc(C(=O)NC(CCC(=O)O)C(=O)O)cc3)nc2c(=O)[nH]1 (stereo not given) .
Response: 1.36

Prompt: Entry `O=c1[nH]cnc2nc[nH]c12` : reported LC retention time = ?
Response: 1.38

Prompt: // LC retention time lookup, key: `CC(C)=CCNc1ncnc2nc[nH]c12`
Response: 15.4

###

Experiment: RP, Waters ACQUITY UPLC BEH C18, 100 × 2.1 mm, 1.7 µm, 0.2 mL/min, estimated dead time 1.1 min; A: water + 0.1% formic acid, pH 3; B: methanol + 0.1% formic acid, pH 3; gradient (min/%B) 0/5 5/5 25/100 30/100 30.1/5 35/5
Conditions: stereoisomer not certain
Measured Attribute: LC retention time (min)
Hi! Could you send only the number? It should be in min, unit omitted.

As a guide, the following entries are already answered.
Nc1nc2nccnc2c(=O)[nH]1 [PTERIN] | 2.44
Nc1ncnc2c1ncn2C1OC(COP(=O)(O)OP(=O)(O)OC2OC(CO)C(O)C(O)C2O)C(O)C1O (centres undefined) [ADENOSINE 5'-DIPHOSPHOGLUCOSE] | 1.56

Prompt: Using the record for O=C(O)CCCCCCCCCO [10-HYDROXYDECANOATE] , report its LC retention time.
Response: 18.3

Prompt: What does the data say about its LC retention time? Entry: N[C@@H](Cc1ccc(O)c([N+](=O)[O-])c1)C(=O)O [3-NITRO-L-TYROSINE]
Response: 6.44

###

Test: RP, Waters ACQUITY UPLC BEH C18, 100 × 2.1 mm, 1.7 µm, 0.2 mL/min, estimated dead time 1.1 min; A: water + 0.025% formic acid + 20 mM ammonium acetate + 0.055% ammonium hydroxide, pH 7; B: methanol; gradient (min/%B) 0/5 5/5 25/100 30/100 30.1/5 35/5
Conditions: stereoisomer not certain
Measured Attribute: log10 of LC retention time (log10 of the value in min)
Hello, just confirming the data are log10 of LC retention time with units of min.

CNCCc1c[nH]c2ccccc12 | 1.05
CC12CCC(=O)C=C1CCC1C2C(O)CC2(C)C1CCC2(O)C(=O)CO (configuration not stated) | 1.26
CC(C)=CCCC(C)C1CCC2(C)C3=C(CCC12C)C1(C)CCC(O)C(C)(C)C1CC3 (configuration not stated) | 1.42
OCCc1c[nH]c2ccccc12 | 1.17

Prompt: Could you share which log10 of LC retention time value was measured for O=C(O)C=Cc1cnc[nH]1 [UROCANATE] ?
Response: 0.14

Prompt: What does the record list as log10 of LC retention time for CC(=O)NC(CCCCN)C(=O)O (configuration not stated) ?
Response: 0.14

Prompt: Item CCCCCCCCC=CCCCCCCCC(=O)OCC(O)CO (racemic) has what recorded log10 of LC retention time?
Response: 1.42

Prompt: I'd like to know its log10 of LC retention time. The molecule in question is `C[N+](C)(C)CCO`
Response: 0.13

Prompt: Quick one: log10 of LC retention time for `Cn1cnc(=N)c2[nH]cnc21` ?
Response: 0.56

Prompt: Tell me the measured log10 of LC retention time of `Cc1cnc(=O)[nH]c1N` , please.
Response: 0.34

Prompt: Any idea what log10 of LC retention time was measured for `Cc1cc2nc[nH]c2cc1C` ?
Response: 1.22

Prompt: So what's the measured log10 of LC retention time for this one? `N[C@@H](Cc1cc(I)c(Oc2ccc(O)cc2)c(I)c1)C(=O)O`
Response: 1.23

Prompt: Need log10 of LC retention time, item `Nc1cccc2ccccc12`
Response: 1.17

Prompt: Give its log10 of LC retention time value. Item: `CSc1ncnc2nc[nH]c12`
Response: 1.07
